Assay: chemical genetic growth profiling, strain panel (AID 1159580);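 further: tested at 20 µM; growth read once vehicle control cultures reached saturation at 30 °C; 1 = growth at the plate median or of vehicle wells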
Settings: S. cerevisiae deletion strains, growth OD, locus YBR023C, strain chs3, stronger effect = lower value
Hit rate of the full screen: of about 5,500 compounds, about 2,000 (36%) were called active. Roughly 18% stayed inconclusive and do not appear here. Some of the results follow.
Measurement Label: normalized growth
Numbers only.

// worked examples, normalized growth included
The compound listed as COC1C(O)C(O)C(O)[C@@H](O)C1O (stereo not given in full) shows normalized growth equal to 0.966

The compound listed as COc1cccc([C@]2(O)CCCC[C@H]2CN(C)C)c1 shows normalized growth equal to 0.977

Look up normalized growth for the entries below, preserving their order.
1. CC1(C)S[C@@H]2[C@H](NC(=O)[C@H](NC(=O)N3CCNC3=O)c3ccccc3)C(=O)N2C1C(=O)O (stereo not given in full)
2. Cc1ccc(O)cc1
3. CCCCCCCCCCCCC[N+](C)(C)Cc1ccccc1
4. CC(=O)O[C@]1(C(C)=O)CCC2C3C[C@H](C)C4=CC(=O)CC[C@]4(C)C3CC[C@@]21C (stereo not given in full)
5. CCCCOc1ccc(C(=O)CCN2CCCCC2)cc1
6. Cc1c(N(C)C)c(=O)n(-c2ccccc2)n1C
7. CCCCCCCC/C=C/CCCCCCCCOP(=O)([O-])OCC[N+](C)(C)C
8. COc1ccc2c(c1)C1(C)CCC(=O)CC1CC2 (stereo not given)

1: 0.979; 2: 1.02; 3: 0.0617; 4: 0.924; 5: 0.95; 6: 0.983; 7: 0.0583; 8: 1.01

Look up normalized growth for the entries below, preserving their order.
1. CN1CCCC(n2nc(Cc3ccc(Cl)cc3)c3ccccc3c2=O)CC1 (stereo not given)
2. C=C1CC[C@H](O)C/C1=C/C=C1\CCC[C@]2(C)C([C@H](C)/C=C/[C@H](C)C(C)C)CC[C@@H]12 (stereo not given in full)

1. 1.02
2. 0.998

###

For each record, write down the corresponding normalized growth.
Assay: chemical genetic growth profiling, strain panel (AID 1159580)
Conditions: S. cerevisiae deletion strains, growth OD, locus YMR231W, strain pep5, stronger effect = lower value
In all, about 5,500 compounds went through this assay and about 2,000 (36%) were called active. Inconclusive results (about 18%) are left out. The list shows a part of the results.

// worked examples, normalized growth included
The compound listed as OCc1ccccc1O[C@@H]1O[C@H](CO)[C@@H](O)[C@H](O)[C@H]1O shows normalized growth equal to 0.992 (inactive)

The compound listed as COC1C(O)C(O)C(O)[C@@H](O)C1O (stereo not given in full) shows normalized growth equal to 0.971 (inactive)

Look up normalized growth for the entries below, preserving their order.
1. CNC1(C)C2CCC(C2)C1(C)C (stereo not given)
2. OCC(O)Cc1ccc2c(c1)OCO2 (stereo not given)
3. O=C(Cc1ccccc1)NO
4. CCC(C(=O)O)c1ccccc1 (stereo not given)

1: 0.998 (inactive); 2: 0.996 (inactive); 3: 0.975 (inactive); 4: 0.992 (inactive)

###

Test: chemical genetic growth profiling, strain panel (AID 1159580)
Conditions: S. cerevisiae deletion strains, growth OD, locus YMR263W, strain SAP30, stronger effect = lower value
Among all 5,500 compounds or so, about 2,000 (36%) were called active. Not shown: some 18% with an inconclusive outcome. Some of the results follow.
Measurement Label: normalized growth

The molecule listed as O=c1ccc2cc(O)c(O)cc2o1 shows normalized growth equal to 1 (inactive)

The molecule listed as NC(N)=NOCC[C@H](N)C(=O)O shows normalized growth equal to 1.01 (inactive)

The molecule listed as COC(=O)[C@H]1[C@H]2C[C@H]3c4[nH]c5ccccc5c4CCN3C[C@H]2CC[C@@H]1O shows normalized growth equal to 1.01 (inactive)

The molecule listed as CC(C)(C)NC(=O)N1CCN(c2nc3ccc(Cl)cc3s2)CC1 shows normalized growth equal to 0.992 (inactive)

The molecule listed as O=C(Nc1ccccc1C(=O)NC1CCCCNC1=O)c1cccs1 (stereo not drawn) shows normalized growth equal to 1.01 (inactive)

The molecule listed as Nc1nc2[nH]c(=O)cnc2c(=O)[nH]1 shows normalized growth equal to 0.99 (inactive)

The molecule listed as CN1CCc2cc3c(cc2C1O)OCO3 (stereo not drawn) shows normalized growth equal to 0.981 (inactive)

The molecule listed as COc1cc(OC)c2c(c1)O[C@H](c1ccc(OC)c(OC)c1)[C@@H](O)C2 shows normalized growth equal to 1.01 (inactive)

Look up normalized growth for the entries below, preserving their order.
1. COc1ccc2cc1Oc1ccc(cc1)C[C@H]1c3cc(c(OC)cc3CCN1C)Oc1c(OC)c(OC)cc3c1[C@H](C2)N(C)CC3
2. NCC1(CC(=O)O)CCCCC1
3. NC(=O)c1ncn([C@@H]2O[C@H](CO)[C@@H](O)[C@H]2O)c1O
4. CCC(C(N)=O)c1ccccc1 (stereo not drawn)
5. COc1ccc(OC)c(C(=O)c2cc(OC)c(OC)c(OC)c2)c1
6. COc1ccccc1C1CCN(Cc2ccc3ccccc3c2)CC1
7. CCCCCCCCCCCCCCSCC(=O)O
8. Cc1nc(N=Nc2ccc(C(=O)O)cc2)c(COP(=O)(O)O)c(C=O)c1O

1: 1 (inactive); 2: 0.999 (inactive); 3: 0.991 (inactive); 4: 1.02 (inactive); 5: 1.01 (inactive); 6: 1.01 (inactive); 7: 1 (inactive); 8: 1.01 (inactive)

Look up normalized growth for the entries below, preserving their order.
1. CCCC(C)(SCC(=O)O)SCC(=O)O
2. NC/C=C/C(=O)O

1.01 (inactive)
1.01 (inactive)

###

Experiment: chemical genetic growth profiling, strain panel (AID 1159580);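 further: tested at 20 µM; growth read once vehicle control cultures reached saturation at 30 °C; 1 = growth at the plate median or of vehicle wells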
Details: S. cerevisiae deletion strains, growth OD, locus YLL026W, stronger effect = lower value
Among all 5,500 compounds or so, about 2,000 (36%) were called active. Roughly 18% stayed inconclusive and do not appear here. The list shows a part of the results.
For each record, write down the corresponding normalized growth.
Answers are plain numbers.

// worked examples, normalized growth included
The compound listed as CC1(C)S[C@@H]2[C@H](NC(=O)[C@H](NC(=O)N3CCNC3=O)c3ccccc3)C(=O)N2C1C(=O)O (stereo not given in full) shows normalized growth equal to 0.984

The compound listed as Cc1c(N(C)C)c(=O)n(-c2ccccc2)n1C shows normalized growth equal to 0.973

The compound listed as CC(C)(N=NC(C)(C)C(=N)N)C(=N)N shows normalized growth equal to 1.02

The compound listed as O=c1ccc2cc(O)c(O)cc2o1 shows normalized growth equal to 0.999

# context switch: different compound, same normalized growth
The compound listed as CNC1(C)C2CCC(C2)C1(C)C (stereo not given) shows normalized growth equal to 0.996

###

Test: chemical genetic growth profiling, strain panel (AID 1159580);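 further: tested at 20 µM; growth read once vehicle control cultures reached saturation at 30 °C; 1 = growth at the plate median or of vehicle wells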
Conditions: S. cerevisiae deletion strains, growth OD, locus YJL187C, strain SWE1 (second series), stronger effect = lower value
Hit rate of the full screen: of about 5,500 compounds, about 2,000 (36%) were called active. Inconclusive results (about 18%) are left out. The list shows a part of the results.
Measurement Label: normalized growth
Answers are plain numbers.

The compound listed as CCc1nc(N)nc(N)c1-c1ccc(Cl)cc1 shows normalized growth equal to 0.982

The compound listed as CC(=O)OCC(CCn1cnc2cnc(N)nc21)COC(C)=O shows normalized growth equal to 0.984

The compound listed as C[C@@H]1O[C@@H](O[C@H]2[C@@H](Oc3cc(O)c4c(c3)O[C@H](c3ccc(O)cc3)CC4=O)O[C@H](CO)[C@@H](O)[C@@H]2O)[C@H](O)[C@H](O)[C@H]1O shows normalized growth equal to 0.968

# context switch: different compound, same normalized growth
The compound listed as C=C1CC[C@H](O)C/C1=C/C=C1\CCC[C@]2(C)C([C@H](C)/C=C/[C@H](C)C(C)C)CC[C@@H]12 (some centres undefined) shows normalized growth equal to 0.965

###

Assay: chemical genetic growth profiling, strain panel (AID 1159580);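 further: tested at 20 µM; growth read once vehicle control cultures reached saturation at 30 °C; 1 = growth at the plate median or of vehicle wells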
Details: S. cerevisiae deletion strains, growth OD, locus YJL166W, strain qcr8, stronger effect = lower value
About 2,000 (36%) of roughly 5,500 compounds were called active. Inconclusive results (about 18%) are left out. Some of the results follow.
Classify: t when normalized growth is strictly less than 1; f when normalized growth is not.

Hi there! Is normalized growth for C[CH2][Hg][S]c1ccccc1C(=O)O below 1, do you know?
t

Hi there! Is normalized growth for CCC1(c2ccccc2)C(=O)NCNC1=O below 1, do you know?
f

Hi there! Is normalized growth for COc1ccc(C(=O)c2ccccc2O)c(O)c1 below 1, do you know?
t

Hi there! Is normalized growth for CCN(CC)C(=S)SSC(=S)N(CC)CC below 1, do you know?
t

Hi there! Is normalized growth for c1ccc(CC2=NCCN2)cc1 below 1, do you know?
f

Hi there! Is normalized growth for CC1(C)S[C@@H]2[C@H](NC(=O)[C@H](NC(=O)N3CCNC3=O)c3ccccc3)C(=O)N2C1C(=O)O (stereo partly specified) below 1, do you know?
t

***
Hi there! Is normalized growth for CCc1nc(N)nc(N)c1-c1ccc(Cl)cc1 below 1, do you know?
t

Hi there! Is normalized growth for COc1c2c(c(CC=C(C)C)c3oc(=O)c(-c4ccc(O)cc4)c(O)c13)OC(C)(C)C=C2 below 1, do you know?
t

Hi there! Is normalized growth for O=C1C[C@@H](c2ccc(O)cc2)Oc2cc(O)cc(O)c21 below 1, do you know?
t

Hi there! Is normalized growth for CC1(C)C2CC[C@]3(C)C(C(=O)C=C4[C@H]5C[C@@](C)(C(=O)O)CC[C@]5(C)CC[C@]43C)[C@@]2(C)CC[C@@H]1O (stereo partly specified) below 1, do you know?
t

Hi there! Is normalized growth for CCOC(=O)c1ncn2c1CN(C)C(=O)c1cc(F)ccc1-2 below 1, do you know?
f
